Numbers sourced from patent US8809369B2.

# Test system: AMP-activated protein kinase (AMPK)
# protocol description: p-AMPK expression level in L6 cell line by Western blot
# Type: cell-based
# test parameters: L6 cells, 2 hours compound treatment
Consider the following compounds; for each one, report its Activity AC1.3 (AMPKp).
Report only the number, with the unit µM understood.

input: For the compound shown here, CC(C)(C)c1ccc(-c2cncc(C3CC(C)(C)c4cc(C(=O)NS(=O)(=O)C5CC5)ccc4N3)c2)cc1 (stereo not shown) , give the reported Activity AC1.3 (AMPKp).
output: 0.06

input: For the compound shown here, Cc1cc(C(=O)NS(=O)(=O)C2CC2)cc2c1NC(c1cccc(N3CCOCC3)c1)CC2(C)C (stereo not shown) , give the reported Activity AC1.3 (AMPKp).
output: 12.8

input: For the compound shown here, CC1(C)CC(c2cccc(N3CCCC3)c2)Nc2ccc(C(=O)NS(=O)(=O)C3CC3)cc21 (stereo not shown) , give the reported Activity AC1.3 (AMPKp).
output: 0.55

input: For the compound shown here, CC1(C)CC(c2cccc(C(N)=O)c2)Nc2ccc(C(=O)NS(=O)(=O)C3CC3)cc21 (stereo not shown) , give the reported Activity AC1.3 (AMPKp).
output: 0.08

input: For the compound shown here, CC1(C)CC(c2cccc(N3CCCC3)c2)Nc2c(C(=O)NS(=O)(=O)C3CC3)cc(Cl)cc21 (stereo not shown) , give the reported Activity AC1.3 (AMPKp).
output: 0.14

input: For the compound shown here, CC1(C)CC(c2cccc(N3CCOCC3)c2)Nc2ccc(S(=O)(=O)N3CCOCC3)cc21 (stereo not shown) , give the reported Activity AC1.3 (AMPKp).
output: 5.70

input: For the compound shown here, CC1(C)CC(c2cc(N3CCOCC3)ccc2Cl)Nc2ccc(C(=O)NS(=O)(=O)C3CC3)cc21 (stereo not shown) , give the reported Activity AC1.3 (AMPKp).
output: 0.21

input: For the compound shown here, Cc1ccc(N2CCN(c3cccc(C4CC(C)(C)c5cc(F)cc(C(=O)NS(C)(=O)=O)c5N4)c3)CC2)cc1 (stereo not shown) , give the reported Activity AC1.3 (AMPKp).
output: 0.003

input: For the compound shown here, CC1(C)CC(c2cccc(C(N)=O)c2)Nc2ccc(C(=O)NS(C)(=O)=O)cc21 (stereo not shown) , give the reported Activity AC1.3 (AMPKp).
output: 0.002

input: For the compound shown here, CC1(C)CC(c2cccc(N3CCOCC3)c2)Nc2ccc(S(=O)(=O)NC3CCC3)cc21 (stereo not shown) , give the reported Activity AC1.3 (AMPKp).
output: 0.1

input: For the compound shown here, CC1(C)CC(c2cccc(-c3ccccc3O)c2)Nc2ccc(S(=O)(=O)NC3CCC3)cc21 (stereo not shown) , give the reported Activity AC1.3 (AMPKp).
output: 0.41

input: For the compound shown here, CC1(C)CC(c2cccc(NC3(C(=O)O)CC3)c2)Nc2ccc(S(=O)(=O)N3CCOCC3)cc21 (stereo not shown) , give the reported Activity AC1.3 (AMPKp).
output: 0.01

input: For the compound shown here, CC1(C)CC(c2cc(F)cc(N3CCOCC3)c2)Nc2ccc(S(=O)(=O)NC3CCC3)cc21 (stereo not shown) , give the reported Activity AC1.3 (AMPKp).
output: 19.4

input: For the compound shown here, CN1CCN(c2cccc(C3CC(C)(C)c4cc(C(=O)NS(=O)(=O)C5CC5)ccc4N3)c2)CC1 (stereo not shown) , give the reported Activity AC1.3 (AMPKp).
output: 0.18

input: For the compound shown here, CN1CCN(c2cccc(C3CC(C)(C)c4cccc(C(=O)NS(C)(=O)=O)c4N3)c2)CC1 (stereo not shown) , give the reported Activity AC1.3 (AMPKp).
output: 0.02

input: For the compound shown here, CC1(C)CC(c2cccc(C#N)c2)Nc2ccc(C(=O)NS(C)(=O)=O)cc21 (stereo not shown) , give the reported Activity AC1.3 (AMPKp).
output: 0.08

###

# Test system: AMP-activated protein kinase (AMPK)
# protocol description: p-AMPK expression level in L6 cell line by Western blot
# Type: cell-based
# test parameters: L6 cells, 2 hours compound treatment
reported metric: Activity AC1.3 (AMPKp)
Report field: quantity (unit follows the number).

input: For the compound shown here, CC1(C)CC(c2cccc(NC3(C(=O)O)CC3)c2)Nc2ccc(S(=O)(=O)NC3CCC3)cc21 (centres unmarked) , give the reported Activity AC1.3 (AMPKp).
output: 0.2 µM

input: For the compound shown here, Cc1ccccc1N1CCN(c2cccc(C3CC(C)(C)c4cc(F)cc(C(=O)NS(C)(=O)=O)c4N3)c2)CC1 (centres unmarked) , give the reported Activity AC1.3 (AMPKp).
output: 0.85 µM

input: For the compound shown here, CC1(C)CC(c2cccc(N3CCOCC3)c2)Nc2c(C(=O)NS(C)(=O)=O)cc(F)cc21 (centres unmarked) , give the reported Activity AC1.3 (AMPKp).
output: 0.03 µM

input: For the compound shown here, Cc1ccccc1N1CCN(c2cccc(C3CC(C)(C)c4cc(F)cc(C(=O)NS(=O)(=O)C5CC5)c4N3)c2)CC1 (centres unmarked) , give the reported Activity AC1.3 (AMPKp).
output: 0.46 µM

input: For the compound shown here, CC1(C)CC(c2cccc(N3CCCC3)c2)Nc2c(C(=O)NS(C)(=O)=O)cc(Cl)cc21 (centres unmarked) , give the reported Activity AC1.3 (AMPKp).
output: 0.08 µM

input: For the compound shown here, CC1(C)CC(c2cccc(N3CCOCC3)c2)Nc2ccc(C(=O)NS(=O)(=O)C3CC3)nc21 (centres unmarked) , give the reported Activity AC1.3 (AMPKp).
output: 4.46 µM

input: For the compound shown here, CC1(C)CC(c2cccc(C#N)c2)Nc2ccc(C(=O)NS(=O)(=O)C3CC3)cc21 (centres unmarked) , give the reported Activity AC1.3 (AMPKp).
output: 0.24 µM

input: For the compound shown here, CC1(C)CC(c2cncc(N3CCOCC3)c2)Nc2ccc(C(=O)NS(=O)(=O)C3CC3)cc21 (centres unmarked) , give the reported Activity AC1.3 (AMPKp).
output: 0.03 µM

###

# Tested on: AMP-activated protein kinase (AMPK)
# protocol description: p-AMPK expression level in L6 cell line by Western blot
# Format: cell-based
# test parameters: L6 cells, 2 hours compound treatment
The threshold is 0.2 µM. Values of Activity AC1.3 (AMPKp) beneath it are tagged Criterion met; values meeting or exceeding it are tagged Criterion not met.

input: Say whether its Activity AC1.3 (AMPKp) is strictly beneath 0.2 µM. Entry: CC(C)(Nc1cc(F)cc(C2CC(C)(C)c3cc(S(=O)(=O)NC4CCC4)ccc3N2)c1)C(=O)O (stereo not drawn) [Example 86]
output: Criterion met

input: Say whether its Activity AC1.3 (AMPKp) is strictly beneath 0.2 µM. Entry: CC1(C)CC(c2cccc(N3CCN(c4ccccc4)CC3)c2)Nc2c(C(=O)NS(=O)(=O)C3CC3)cccc21 (stereo not drawn) [Example 76]
output: Criterion not met

input: Say whether its Activity AC1.3 (AMPKp) is strictly beneath 0.2 µM. Entry: Cc1ccc(N2CCN(c3cncc(C4CC(C)(C)c5cc(C(=O)NS(C)(=O)=O)ccc5N4)c3)CC2)c(C)c1 (stereo not drawn) [Example 49]
output: Criterion met

input: Say whether its Activity AC1.3 (AMPKp) is strictly beneath 0.2 µM. Entry: CC1(C)CC(c2cc(F)cc(NC3(C(=O)O)CC3)c2)Nc2ccc(S(=O)(=O)NC3CCC3)cc21 (stereo not drawn) [Example 87]
output: Criterion met

input: Say whether its Activity AC1.3 (AMPKp) is strictly beneath 0.2 µM. Entry: CC(C)(Nc1cccc(C2CC(C)(C)c3cc(S(=O)(=O)NC4CCC4)ccc3N2)c1)C(=O)O (stereo not drawn) [Example 85]
output: Criterion met

input: Say whether its Activity AC1.3 (AMPKp) is strictly beneath 0.2 µM. Entry: CC1(C)CC(c2cc(F)cc(N3CCOCC3)c2)Nc2ccc(C(=O)NS(C)(=O)=O)cc21 (stereo not drawn) [Example 4]
output: Criterion not met

input: Say whether its Activity AC1.3 (AMPKp) is strictly beneath 0.2 µM. Entry: CC(C)(Nc1cccc(C2CC(C)(C)c3cc(S(=O)(=O)N4CCOCC4)ccc3N2)c1)C(=O)O (stereo not drawn) [Example 82]
output: Criterion met

input: Say whether its Activity AC1.3 (AMPKp) is strictly beneath 0.2 µM. Entry: CS(=O)(=O)NC(=O)c1ccc2c(c1)C1(CCCC1)CC(c1cccc(N3CCOCC3)c1)N2 (stereo not drawn) [Example 5]
output: Criterion not met

input: Say whether its Activity AC1.3 (AMPKp) is strictly beneath 0.2 µM. Entry: CC1(C)CC(c2cccc(N3CCOC3=O)c2)Nc2c(C(=O)NS(C)(=O)=O)cc(Cl)cc21 (stereo not drawn) [Example 64]
output: Criterion met

input: Say whether its Activity AC1.3 (AMPKp) is strictly beneath 0.2 µM. Entry: Cc1ccc(N2CCN(c3cccc(C4CC(C)(C)c5cc(C(=O)NS(C)(=O)=O)ccc5N4)c3)CC2)c(C)c1 (stereo not drawn) [Example 53]
output: Criterion not met

input: Say whether its Activity AC1.3 (AMPKp) is strictly beneath 0.2 µM. Entry: CN(C)c1cccc(C2CC(C)(C)c3cc(Cl)cc(C(=O)NS(=O)(=O)C4CC4)c3N2)c1 (stereo not drawn) [Example 61]
output: Criterion met

input: Say whether its Activity AC1.3 (AMPKp) is strictly beneath 0.2 µM. Entry: Cc1ccc(N2CCOC2=O)cc1C1CC(C)(C)c2cc(C(=O)NS(C)(=O)=O)ccc2N1 (stereo not drawn) [Example 27]
output: Criterion met

input: Say whether its Activity AC1.3 (AMPKp) is strictly beneath 0.2 µM. Entry: CC(C)(C)c1ccc(-c2cccc(C3CC(C)(C)c4cc(C(=O)NS(=O)(=O)C5CC5)ccc4N3)c2)cc1 (stereo not drawn) [Example 40]
output: Criterion not met

input: Say whether its Activity AC1.3 (AMPKp) is strictly beneath 0.2 µM. Entry: Cc1ccc(N2CCN(c3cncc(C4CC(C)(C)c5cc(C(=O)NS(=O)(=O)C6CC6)ccc5N4)c3)CC2)c(C)c1 (stereo not drawn) [Example 50]
output: Criterion met

input: Say whether its Activity AC1.3 (AMPKp) is strictly beneath 0.2 µM. Entry: Cc1ccc(N2CCOC2=O)cc1C1CC(C)(C)c2cc(C(=O)NS(=O)(=O)C3CC3)ccc2N1 (stereo not drawn) [Example 28]
output: Criterion met
